B1: SFRS1 (parent)
chain: RDIDLKNRRGGPPFAFVEFEDPRD

variants of: B1; assay: protein stability index of a GFP-peptide fusion (GPS, HEK-293T) (PSI 1-6); higher = more stable; conditions: c terminus: a fixed tail appended;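 also: lentivirally expressed fusions sorted by FACS into six bins by GFP to DsRed ratio, PSI derived from sequencing read proportions per bin multiplied by bin number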
Below, each of the variants is paired with its reported protein stability index value.
PROPERTY: protein stability index

In [3]: df
Out[3]:
   variant_code                 property  value_observed
0           L5S  protein stability index            4.06
1           R9G  protein stability index            4.11
2          V17W  protein stability index            3.92
3          P12M  protein stability index            3.93
4           R9F  protein stability index            3.94
